Entry source: patent US10570179B2

Recorded pEC50 by entry
target_of_assay: S. aureus ClpP (Sa-ClpP) (Staphylococcus aureus, UniProt Q2G036)
Sequence (Q2G036 whole entry): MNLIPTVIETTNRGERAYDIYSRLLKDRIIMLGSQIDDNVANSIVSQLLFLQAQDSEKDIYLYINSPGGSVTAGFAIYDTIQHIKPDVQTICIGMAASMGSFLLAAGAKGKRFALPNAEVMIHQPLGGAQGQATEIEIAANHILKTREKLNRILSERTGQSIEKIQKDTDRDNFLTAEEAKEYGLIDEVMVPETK
protocol_text: Casein-BODIPY digestion assay (ClpP activation)
Numbered stars: 1 amine (or outer) side, 2 acyl side, 3 side chain; on linkers, the order of the positions; unused ones are H or OH. Bridge positions count the residues as written; N and C are the ends. Square brackets hold non-standard residues; d marks the D form. Peptide text beside a SMILES is read from it. * marks the point of attachment. Morpholine(3S-CO) = O=C(O)[C@@H]1COCCN1; Phe(3-Me) = Cc1cccc(C[C@H](N)C(=O)O)c1; Pro(4R-Me) = C[C@H]1CN[C@H](C(=O)O)C1; Hyp = O=C(O)[C@@H]1C[C@@H](O)CN1; NH(3-Cl-phenyl) = Clc1cccc(N*)c1; aThr = C[C@H](O)[C@H](N)C(=O)O; NH(2-F-phenyl) = Fc1ccccc1N*; Pip = O=C(O)[C@@H]1CCCCN1; X3 = c1cc2c(cc1N*)OCCO2; CO = O=C([*:1])[*:2]
Convention used: pEC50 is expressed as -log10 of the molar concentration.

# count of solved cases: 2
molecule	pEC50
Cc1cccc(C[C@H](NC(=O)Nc2ccc3c(c2)OCCO3)C(=O)N[C@@H]2C(=O)N3C[C@H](O)C[C@H]3C(=O)N3CCOC[C@H]3C(=O)N[C@@H](C)C(=O)N3C[C@H](C)C[C@H]3C(=O)O[C@H]2C)c1 [Compound 27] ({X3-CO}-[Phe(3-Me)][aThr][Hyp][Morpholine(3S-CO)]A[Pro(4R-Me)]; ester 2-C)	5.92
Cc1cccc(C[C@H](NC(=O)Nc2cccc(Cl)c2)C(=O)N[C@@H]2C(=O)N3C[C@H](O)C[C@H]3C(=O)N3CCOC[C@H]3C(=O)N[C@@H](C)C(=O)N3C[C@H](C)C[C@H]3C(=O)O[C@H]2C)c1 [Compound 74] ({NH(3-Cl-phenyl)-CO}-[Phe(3-Me)][aThr][Hyp][Morpholine(3S-CO)]A[Pro(4R-Me)]; ester 2-C)	6.60

Turning now to a further record.
pEC50 for Cc1cccc(C[C@H](NC(=O)Nc2ccccc2F)C(=O)N[C@@H]2C(=O)N3C[C@H](O)C[C@H]3C(=O)N3CCCC[C@H]3C(=O)N[C@@H](C)C(=O)N3C[C@H](C)C[C@H]3C(=O)O[C@H]2C)c1 [Compound 80] ({NH(2-F-phenyl)-CO}-[Phe(3-Me)][aThr][Hyp][Pip]A[Pro(4R-Me)]; ester 2-C) is 6.23

---

System: S. aureus USA 300
protocol_text: Minimal inhibitory concentration, microbroth dilution
Format: cell-based
condition_description: Staphylococcus aureus, USA300; MIC; read-out: Minimal Inhibitory Concentrations (μM) S. aureus USA 300
Method: Minimal inhibitory concentrations (“MICs”) were determined using the microbroth dilution method according to Clinical Laboratory Standards Institute (CLSI; National, C.F. C. L. S., Methods for Dilution Antimicrobial Susceptibility Tests for Bacteria Grow aerobically-Seventh Edition: Approved Standard M7-A7, CLSI, Wayne, Pa., USA, 2008) and were read by visual inspection. […] After incubations, in all cases the MIC was recorded as the lowest concentration of drug that prevented bacterial growth. […]
Numbered stars: 1 amine (or outer) side, 2 acyl side, 3 side chain; on linkers, the order of the positions; unused ones are H or OH. Bridge positions count the residues as written; N and C are the ends. Square brackets hold non-standard residues; d marks the D form. Peptide text beside a SMILES is read from it. * marks the point of attachment. Phe(3-CF3) = N[C@@H](Cc1cccc(C(F)(F)F)c1)C(=O)O; Piperazine(2S-CO,4-Me) = CN1CCN[C@H](C(=O)O)C1; Morpholine(3S-CO) = O=C(O)[C@@H]1COCCN1; Phe(3-Me) = Cc1cccc(C[C@H](N)C(=O)O)c1; Pro(4S-Me) = C[C@@H]1CN[C@H](C(=O)O)C1; NH(4-Cl-2-F-phenyl) = Fc1cc(Cl)ccc1N*; Pro(4R-Me) = C[C@H]1CN[C@H](C(=O)O)C1; Hyp = O=C(O)[C@@H]1C[C@@H](O)CN1; NH(4-Et-phenyl) = CCc1ccc(N*)cc1; aThr = C[C@H](O)[C@H](N)C(=O)O; Pip = O=C(O)[C@@H]1CCCCN1; CO = O=C([*:1])[*:2]
MIC reference
Value expressed in µM; do not type the unit.

compound	target_of_assay	MIC [µM]
CCc1ccc(NC(=O)N[C@@H](Cc2cccc(C)c2)C(=O)N[C@@H]2C(=O)N3C[C@H](O)C[C@H]3C(=O)N3CCOC[C@H]3C(=O)N[C@@H](C)C(=O)N3C[C@H](C)C[C@H]3C(=O)O[C@H]2C)cc1 [Compound 24] ({NH(4-Et-phenyl)-CO}-[Phe(3-Me)][aThr][Hyp][Morpholine(3S-CO)]A[Pro(4R-Me)]; ester 2-C)	S. aureus USA 300	0.313
CCc1ccc(NC(=O)N[C@@H](Cc2cccc(C)c2)C(=O)N[C@@H]2C(=O)N3C[C@H](O)C[C@H]3C(=O)N3CCCC[C@H]3C(=O)N[C@@H](C)C(=O)N3C[C@@H](C)C[C@H]3C(=O)O[C@H]2C)cc1 [Compound 65] ({NH(4-Et-phenyl)-CO}-[Phe(3-Me)][aThr][Hyp][Pip]A[Pro(4S-Me)]; ester 2-C)	S. aureus USA 300	0.156

Attention now shifts to the item below.
Summary for this compound, C[C@@H]1C[C@H]2C(=O)OC[C@H](NC(=O)[C@H](Cc3cccc(C(F)(F)F)c3)NC(=O)Nc3ccc(Cl)cc3F)C(=O)N3CCC[C@H]3C(=O)N3CCN(C)C[C@H]3C(=O)N[C@@H](C)C(=O)N2C1 [Compound 18] ({NH(4-Cl-2-F-phenyl)-CO}-[Phe(3-CF3)]SP[Piperazine(2S-CO,4-Me)]A[Pro(4R-Me)]; ester 2-C) : MIC is 10
